All figures here come from ChEMBL document CHEMBL3046734.

Assay: Inhibition of LOX (unknown origin)
Parameters: species or system Homo sapiens
PROPERTY: IC50 (µM)

COc1c(C(C)C)cc2c(c1O)[C@@]1(C)CCC(=O)C(C)(C)[C@@H]1CC2=O: 57
